experiment: Toxicity liver stage against HepG2, at 10uM; type: cell-based; set-up: test concentration 10 uM, cell line HepG2-A16-CD81EGFP; settings: human, HepG2-A16-CD81EGFP cells; read-out: INHIBITION
Quick reference for cytotoxicity at 10 µM among some compounds
READOUT: cytotoxicity at 10 µM

> print(dat)
                                    compound  obs.value
 1    CNCC(=O)N1CC(c2cc(Nc3ncccn3)nc(C)n2)C1      4.19%
 2  Cc1nnc2n1CCN(C(=O)c1cc(C)n(-c3cccnc3)c1C)C2     -6.63%
 3      COc1nn(C)c2c1CCCN(C(=O)COc1ccccc1)C2      3.91%
 4        COc1nn(C)cc1C(=O)NCC(=O)NCc1cccnc1     -6.32%
 5  c1cncc(CN2CC[C@H]3O[C@@H](COCC4CC4)CC[C@H]32)c1      2.19%
 6  COc1cccc(CN2C[C@H]3CCNCC[C@H]3S2(=O)=O)c1     -8.81%
 7  CN(C)CCN1CCOCC2(CCCN(C(=O)Cc3ccccc3)C2)C1 (stereo unspecified)      2.14%
 8  OC(CNCCn1cccn1)COc1ccc(F)cc1 (stereo unspecified)     -16.6%
 9  C[C@@H]1CN(C(=O)C2CCOCC2)C[C@]12CCN(c1cccnc1)C2=O      6.95%
10         CN(C)c1cc(CNC(=O)c2ccc(F)cc2)ccn1     -22.9%
11  CNC(=O)[C@H]1C[C@H]2OCC[C@H]2N(CC2CCOCC2)C1      6.46%
